- study-system: DHS2^WT (Arabidopsis thaliana, UniProt Q00218)
- Sequence (Q00218 34-507): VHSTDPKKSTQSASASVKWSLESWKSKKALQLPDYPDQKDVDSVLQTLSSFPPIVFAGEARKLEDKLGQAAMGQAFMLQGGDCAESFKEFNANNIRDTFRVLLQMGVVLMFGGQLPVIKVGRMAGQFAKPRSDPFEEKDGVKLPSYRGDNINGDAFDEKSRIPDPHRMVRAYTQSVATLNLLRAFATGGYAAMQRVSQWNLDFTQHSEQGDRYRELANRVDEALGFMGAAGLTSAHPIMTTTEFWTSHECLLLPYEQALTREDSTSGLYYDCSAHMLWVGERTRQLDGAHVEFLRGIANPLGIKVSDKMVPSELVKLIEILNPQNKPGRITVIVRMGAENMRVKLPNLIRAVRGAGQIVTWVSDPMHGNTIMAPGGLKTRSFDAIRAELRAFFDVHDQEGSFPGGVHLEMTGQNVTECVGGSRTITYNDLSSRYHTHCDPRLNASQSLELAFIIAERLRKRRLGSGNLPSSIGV
- assay-method-text: DHS enzyme assay
- particulars: recombinant DHS2^WT, varied effector concentrations
recorded-endpoint: IC50 (µM)
All answers are understood in µM, so give the number only.

Ask | What does the data say about its IC50? Entry: O=C(O)C(=O)Cc1c[nH]c2ccccc12 [IPA, indole-3-pyruvate]
Reply | 58

* * *

- study-system: DHS2^WT (Arabidopsis thaliana, UniProt Q00218)
- assay-method-text: DHS enzyme assay
- Assay type: biochemical
- particulars: screening of AAAs and AAA-derived metabolites as potential inhibitors (Fig. 2D)

>  <compound>
NCCc1c[nH]c2ccccc12

>  <inhibition of DHS2 activity>
slight reduction

$$$$
>  <compound>
Nc1ccccc1C(=O)[O-].[Na+] [Anthranilate]

>  <inhibition of DHS2 activity>
slight reduction

$$$$

* * *

- study-system: DHS1^WT (Arabidopsis thaliana, UniProt P29976)
- Sequence (P29976 49-525): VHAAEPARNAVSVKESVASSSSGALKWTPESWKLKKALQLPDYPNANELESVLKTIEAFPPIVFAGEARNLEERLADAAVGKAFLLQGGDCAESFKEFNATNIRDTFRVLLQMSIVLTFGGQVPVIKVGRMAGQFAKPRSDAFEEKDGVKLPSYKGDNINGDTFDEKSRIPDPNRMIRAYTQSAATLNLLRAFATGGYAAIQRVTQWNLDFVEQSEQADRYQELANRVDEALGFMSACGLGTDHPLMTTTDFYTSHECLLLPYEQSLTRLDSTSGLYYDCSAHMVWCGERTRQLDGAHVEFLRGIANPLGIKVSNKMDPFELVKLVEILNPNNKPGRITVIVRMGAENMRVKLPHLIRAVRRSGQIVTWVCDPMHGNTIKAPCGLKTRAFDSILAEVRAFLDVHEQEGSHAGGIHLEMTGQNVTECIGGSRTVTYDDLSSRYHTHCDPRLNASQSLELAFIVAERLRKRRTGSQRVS
- assay-method-text: DHS enzyme assay
- Assay type: biochemical
- particulars: screening of AAA-derived metabolites as potential inhibitors (Fig. 2D)

>  <molecule>
O=C(O)C(=O)Cc1ccccc1 [PPY, phenylpyruvate]

>  <inhibition of DHS1 activity>
neither

$$$$
>  <molecule>
O=C(O)Cc1ccc(O)cc1 [4-hydroxyphenylacetate]

>  <inhibition of DHS1 activity>
neither

$$$$

* * *

- study-system: DHS3 (DHS^WT isoform)
- assay-method-text: DHS enzyme assay
- particulars: recombinant DHS3 WT, varied effector concentrations
recorded-endpoint: IC50

Ask | What does the data say about its IC50? Entry: O=C(O)Cc1cc(O)ccc1O [HGA, homogentisate]
Reply | 75 to 250 µM
